Would you mind telling me the reported Inh (PKA) of each entry?
Tested on: PRKACA-PRKAR2A interaction (SmBiT-PRKACA / LgBiT-PRKAR2A), protein kinase A
Set-up: NanoLuc complementation counter-screen in cell extract, PRKACA with PRKAR2A, loss of luminescence, detects NanoLuc interference
Details: counter-screen for NanoLuc interference; 0.5 h, 20 µM; inhibitor
Where a name gives a salt, the structure may show the parent alone. Peptide text beside a SMILES is read from it. * marks the point of attachment. Cbz = O=C(OCc1ccccc1)*; CH2F = FC*
Give bare numbers, in %.

Provide each entry's Inh (PKA) from the list below.
1. CN(C)CCCn1cc(C2=C(c3c[nH]c4ccccc34)C(=O)NC2=O)c2ccccc21 [UM0127819:02, GF 109203X]
2. Oc1cc(O)c(Cl)cn1 [UM0141798:01, Gimeracil]
3. O=C(NCc1cccc(O)c1)Nc1nc(-c2ccncc2)cs1 [UM0141621:01, RKI-1447]
4. O=C(O)CNC(=O)c1c(O)c2ccccc2n(Cc2ccccc2)c1=O [UM0141753:01, IOX2(Glycine)]
5. Cc1cnc(NC(=O)Nc2cc(Br)c(C)cc2OC[C@@H]2CNCCO2)cn1 [UM0142106:01, LY2603618]
6. CC1=CC(=O)C(C(C)C)=C/C1=N/OC(=O)c1ccccc1C [UM0141608:01, Poloxin]
7. CC(C)(C)c1ccc(S(=O)(=O)NCc2ccc(C(=O)Nc3cccnc3)cc2)cc1 [UM0142793:01, STF 31]
8. COC(=O)C[C@H](NC(=O)[C@H](C)NC(=O)[C@@H](NC(=O)OCc1ccccc1)C(C)C)C(=O)CF [UM0141421:01, Z-VAD-FMK] (Cbz-Val-Ala-Asp(OMe)-CH2F)

[67.69, 0.03154, -11, 18.92, 6.637, 31.48, 3.916, 1.417]

Provide each entry's Inh (PKA) from the list below.
1. C[C@H](Cc1ccc(O)c(O)c1)[C@@H](C)Cc1ccc(O)c(O)c1 [UM0141592:01, Nordihydroguaiaretic acid]
2. CN(C)CCCN1c2ccccc2Sc2ccc(Cl)cc21 [UM0118114:03, Chlorpromazine HCl]
3. C=C1C[C@@H]2[C@H](CC[C@]3(C)C(=O)CC[C@@H]23)[C@@]2(C)C=CC(=O)C=C12 [UM0141388:01, Exemestane]
4. NC(=O)c1ccccc1Nc1ccnc(Nc2cccc(O)c2)n1 [UM0141542:01, DB07268]
5. COC[C@H](NC(=O)c1cnc(C)s1)C(=O)N[C@@H](COC)C(=O)N[C@@H](Cc1ccccc1)C(=O)[C@@]1(C)CO1 [UM0141434:01, Oprozomib (ONX-0912)]
6. C[C@](N)(Cc1ccc(O)c(O)c1)C(=O)O [UM0118624:04, Methyldopa]
7. CC(C)(C)c1nc2c3cc[nH]c(=O)c3c3cc(F)ccc3c2[nH]1 [UM0127875:02, Pyridone 6]

1: 80.65; 2: 15.72; 3: 1.515; 4: 39.9; 5: -0.3511; 6: -0.4014; 7: 10.77

Provide each entry's Inh (PKA) from the list below.
1. Cc1ccc(/C=C2\CNC/C(=C\c3ccc(C)cc3)C2=O)cc1 [UM0141659:01, NSC 632839 hydrochloride]
2. Cc1cccc(C)c1OCC(=O)N[C@@H](Cc1ccccc1)[C@@H](O)C[C@H](Cc1ccccc1)NC(=O)[C@H](C(C)C)N1CCCNC1=O [UM0141948:01, Lopinavir]
3. Cc1[nH]c(/C=C2\C(=O)Nc3ccc(S(=O)(=O)N(C)c4cccc(Cl)c4)cc32)c(C)c1C(=O)N1CCN(C)CC1 [UM0127889:02, SU11274]
4. COc1cccc(Nc2c(C(N)=O)cnc3c(C)cc(S(=O)(=O)c4cccc(C(=O)N(C)C)c4)cc23)c1 [UM0141788:01, GSK256066]
5. CCC(=O)Nc1cccc(Oc2nc(Nc3ccc(N4CCN(C)CC4)cc3OC)ncc2Cl)c1 [UM0142226:01, WZ4003]
6. NCCc1ccc(O)c(O)c1 [UM0119875:03, Dopamine HCl]
7. O=C1NCCc2[nH]c(-c3ccncc3)cc21 [UM0141605:01, PHA-767491]

12.94
17.52
71.51
11.7
29.29
1.983
1.427

Provide each entry's Inh (PKA) from the list below.
1. CNC(=O)c1cccc(-c2ccc3c(N4CCOC[C@@H]4C)nc(N4CCOC[C@@H]4C)nc3n2)c1 [UM0142021:01, AZD2014]
2. N#CC(c1ccnc(OCc2ccc(CN3CCOCC3)cc2)n1)c1nc2ccccc2s1 (centres unmarked) [UM0141518:01, AS 602801]
3. O=C(Nc1c[nH]nc1-c1nc2ccc(CN3CCOCC3)cc2[nH]1)NC1CC1 [UM0141714:01, AT9283]
4. O=C(Nc1cccc(C(F)(F)F)c1)Nc1cc(S(=O)(=O)NC2CC2)ccc1-c1ccsc1 [UM0141513:01, AGI-6780]

[7.565, 8.348, 10.96, 24.76]

Provide each entry's Inh (PKA) from the list below.
1. CC1=C(C(=O)OC(C)C)C(c2cccc([N+](=O)[O-])c2)C(C(=O)OC2CN(C(c3ccccc3)c3ccccc3)C2)=C(N)N1 (centres unmarked) [UM0142244:01, Azelnidipine]
2. CC[C@H](C)[C@H](NC(=O)[C@H](CCC(=O)OC)NC(=O)[C@@H](NC(=O)OCc1ccccc1)C(C)C)C(=O)N[C@@H](CC(=O)OC)C(=O)CF [UM0141430:01, Z-VEID-FMK] (Cbz-VE(OMe)ID(OMe)-CH2F)
3. C=C(Cc1ccccc1Cl)C(=O)OCC [UM0142823:01, INF39]

1. 35.77
2. -0.4163
3. 8.84
